assay: amyloid nucleation score (Sup35N fusion, yeast selection) (log enrichment); library NNK3; higher = more nucleation; inactive = no reads after selection;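 further: zero at mode of non-aggregating sequences after 7 days selection at 30°C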
observed-property: amyloid nucleation score

Example cases with answers are listed next.
substance: TICLSRVTYVSRQEWGSASV
amyloid nucleation score: -0.023

substance: GWPVSLN
amyloid nucleation score: inactive

substance: NNCTSTRSMVVGEYRKKGAL
amyloid nucleation score: -0.46

substance: LMKWALNTELKMG
amyloid nucleation score: inactive

substance: SYRVCMCSTLVVVVSSRGLS
amyloid nucleation score: 0.823

substance: WLRLIA
amyloid nucleation score: inactive

amyloid nucleation score reported for this substance "SSYCGHCNYEPRSSWFILFF" : 1.61

amyloid nucleation score reported for this substance "TLGMLHRNWYYLLF" : inactive

amyloid nucleation score reported for this substance "RMESTYGYVLDVSIEVLWGI" : inactive

amyloid nucleation score reported for this substance "FPRHCKPRCL" : inactive

amyloid nucleation score reported for this substance "YCSLMMMVYRDFFTLVNASV" : inactive

amyloid nucleation score reported for this substance "RDSCFNIDFKEEVVRKVSMA" : 0.827
